B1: DnaJ homolog subfamily C member 2, residues 451 to 503; numbered along this chain, Q99543 (parent)
chain: SKNWSEDDLQLLIKAVNLFPAGTNSRWEVIANYMNIHSSSGVKRTAKDVIGKA

variants of: B1; experiment: abundance fitness (aPCA) (normalised: wild type 0, dead -1); higher = more abundant; growth selection in yeast, the domain comes from the species named; details: Homo sapiens
Task for the reader: assign each of the following variants its reported abundance fitness.
Numbers only.

Recorded abundance fitness, per entry:
>  <VARIANT LABEL>
Y33D

>  <METRIC>
abundance fitness

>  <NUMERIC RESULT>
-0.977

$$$$
>  <VARIANT LABEL>
D48Q

>  <METRIC>
abundance fitness

>  <NUMERIC RESULT>
-0.105

$$$$

// batch mode: one abundance fitness value per listed entry
1. Y33P
2. S38C
3. Q10D
4. N24L

1. -0.938
2. -0.169
3. -0.217
4. -0.116
